Biological target: T1, his6-Siah1 (aa 81-282) (UniProt Q8IUQ4 81-282)
T1 sequence (looked up): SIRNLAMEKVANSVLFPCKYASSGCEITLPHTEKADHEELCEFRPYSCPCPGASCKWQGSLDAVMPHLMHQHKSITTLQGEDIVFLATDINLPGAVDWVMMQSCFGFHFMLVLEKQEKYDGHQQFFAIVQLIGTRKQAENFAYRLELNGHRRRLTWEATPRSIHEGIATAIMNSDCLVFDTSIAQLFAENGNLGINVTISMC
Test: DELFIA displacement assay
Square brackets hold non-standard residues; d marks the D form. * marks the point of attachment. Abu = CC[C@H](N)C(=O)O; Acryloyl = C=CC(=O)*
Endpoint Name: IC50 (nM)

(A) Ac-KLRPVAMVRPK(Acryloyl)VR-NH2 [BI-107F7 (Ac-KLRPVAMVRPαVR-NH2)]
(B) Ac-KLRPVAMVRPTVR-NH2 [BI-107D1 (Ac-KLRPVAMVRPTVR-NH2)]
(C) Ac-QQERTKLRPVAMVRPTVRVQPQL-NH2 [PHYL (Ac-QQERTKLRPVAMVRPTVRVQPQL-NH2)]
(D) Ac-KLRPV[Abu]MVRPTVR-NH2 [BI-107E1 (Ac-KLRPVεMVRPTVR-NH2)]
Query block: List the 4 binders shown above, ordered by increasing IC50. A ranking is expressed here by listing the labels in the requested order.
Result block: A, C, B, D
(A: 100 nM, C: 500 nM, B: 1000 nM, D: 2000 nM)
